Biological target: Cystic fibrosis transmembrane conductance regulator (Homo sapiens, UniProt P13569, F508DEL)
Sequence (P13569 as listed by the source): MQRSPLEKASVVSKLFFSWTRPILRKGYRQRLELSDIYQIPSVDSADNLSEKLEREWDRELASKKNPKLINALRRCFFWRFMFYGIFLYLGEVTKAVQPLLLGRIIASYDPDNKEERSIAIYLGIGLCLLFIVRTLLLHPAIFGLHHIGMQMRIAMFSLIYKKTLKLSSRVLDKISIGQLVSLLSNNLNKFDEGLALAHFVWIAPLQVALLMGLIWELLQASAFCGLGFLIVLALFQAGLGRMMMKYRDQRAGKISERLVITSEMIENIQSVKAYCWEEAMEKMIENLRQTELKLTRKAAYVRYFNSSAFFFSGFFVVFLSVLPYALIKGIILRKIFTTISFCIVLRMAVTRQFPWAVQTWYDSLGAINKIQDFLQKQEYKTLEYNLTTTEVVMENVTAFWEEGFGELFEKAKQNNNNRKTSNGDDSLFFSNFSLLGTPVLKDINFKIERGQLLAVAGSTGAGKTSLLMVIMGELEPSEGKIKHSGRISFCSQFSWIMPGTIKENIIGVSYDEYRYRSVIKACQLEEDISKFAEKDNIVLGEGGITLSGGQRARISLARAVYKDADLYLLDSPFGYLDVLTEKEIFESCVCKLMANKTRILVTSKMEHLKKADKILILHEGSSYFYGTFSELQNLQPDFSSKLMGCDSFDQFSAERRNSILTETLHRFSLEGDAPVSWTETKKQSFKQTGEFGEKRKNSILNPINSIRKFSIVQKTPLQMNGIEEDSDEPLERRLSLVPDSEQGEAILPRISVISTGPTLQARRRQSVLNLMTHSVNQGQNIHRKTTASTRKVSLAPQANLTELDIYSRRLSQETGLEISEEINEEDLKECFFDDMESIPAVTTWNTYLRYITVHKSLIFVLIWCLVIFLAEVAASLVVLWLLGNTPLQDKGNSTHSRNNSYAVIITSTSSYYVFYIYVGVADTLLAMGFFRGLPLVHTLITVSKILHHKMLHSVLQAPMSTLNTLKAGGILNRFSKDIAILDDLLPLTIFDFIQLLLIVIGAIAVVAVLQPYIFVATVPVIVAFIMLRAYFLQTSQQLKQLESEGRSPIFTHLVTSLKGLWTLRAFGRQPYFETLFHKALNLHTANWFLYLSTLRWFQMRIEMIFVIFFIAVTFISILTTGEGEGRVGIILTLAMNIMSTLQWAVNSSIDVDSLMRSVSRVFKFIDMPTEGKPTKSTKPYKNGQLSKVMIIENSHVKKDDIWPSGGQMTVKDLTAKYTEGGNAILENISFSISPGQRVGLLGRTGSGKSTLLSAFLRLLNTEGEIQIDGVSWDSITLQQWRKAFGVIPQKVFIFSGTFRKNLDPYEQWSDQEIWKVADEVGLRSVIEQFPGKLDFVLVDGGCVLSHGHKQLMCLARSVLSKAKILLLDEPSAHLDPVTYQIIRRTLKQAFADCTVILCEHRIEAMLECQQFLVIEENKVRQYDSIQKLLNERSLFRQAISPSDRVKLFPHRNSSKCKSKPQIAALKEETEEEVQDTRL
Experiment: Activity at human CFTR delta F508 mutant expressed in forskolin-stimulated FRT cells assessed as increase in iodine influx measured as decrease in YFP fluorescence after 18 to 24 hrs at 37 degC in presence of genistein
result-type: EC50 (µM)

COc1ccc(C(=O)NCCNc2nc3cc(C)cc(C)c3cc2C#N)cc1OC
1.5
Cc1cc(C)c2cc(C#N)c(NCCNC(=O)c3cnccn3)nc2c1
6.7
COc1cccc(C(=O)NCCCNc2nc3cc(C)cc(C)c3cc2C#N)c1
4.6
COc1ccc(C(=O)NCCNc2nc3cc(C)cc(C)c3cc2C#N)c(OC)c1
4.2
Cc1cc(C)c2cc(C#N)c(NCCNC(=O)c3cccnc3)nc2c1
2.7
COc1cccc(OC)c1C(=O)NCCNc1nc2cc(C)cc(C)c2cc1C#N
3.7
Cc1cc(C)c2cc(C#N)c(NCCCNC(=O)c3cccnc3)nc2c1
3
COc1ccc(C(=O)NCCNc2nc3cc(C)cc(C)c3cc2C#N)cc1
3

----------
Test system: FRT
Assay: Potentiation of genistein-induced human CFTR delta F508 mutant gating activity expressed in forskolin-stimulated FRT cells assessed as increase in iodine influx measured as decrease in YFP fluorescence after 24 hrs at 27 degC relative to control
Assay type: cell-based
Label rule, in plain words: Vmax of 200 µM/s and up is Y, under 200 µM/s is N.

Cc1cc(C)c2cc(C#N)c(NCCCNC(=O)c3cccnc3)nc2c1
N
COc1ccc(C(=O)NCCCNc2nc3cc(C)cc(C)c3cc2C#N)cc1
Y
COc1cccc(C(=O)NCCCNc2nc3cc(C)cc(C)c3cc2C#N)c1
N
Cc1cc(C)c2cc(C#N)c(NCCNC(=O)c3ccccn3)nc2c1
N

----------
System: FRT
Experiment: Potentiation of genistein-induced human CFTR delta F508 mutant gating activity expressed in forskolin-stimulated FRT cells assessed as increase in iodine influx measured as decrease in YFP fluorescence after 24 hrs at 27 degC relative to control
Assay type: cell-based
Label rule, in plain words: Vmax of 100 µM/s and up is rule met, under 100 µM/s is rule not met.

COc1ccccc1C(=O)NCCNc1nc2cc(C)cc(C)c2cc1C#N
rule met
COc1ccc(C(=O)NCCNc2nc3cc(C)cc(C)c3cc2C#N)c(OC)c1
rule met
COc1cccc(OC)c1C(=O)NCCNc1nc2cc(C)cc(C)c2cc1C#N
rule met
COc1ccc(C(=O)NCCNc2nc3cc(C)cc(C)c3cc2C#N)nc1
rule not met

----------
Some compounds, each annotated with its measured pEC50.
Experiment: Potentiation of genistein-induced human CFTR delta F508 mutant gating activity expressed in forskolin-stimulated FRT cells assessed as increase in iodine influx measured as decrease in YFP fluorescence after 24 hrs at 27 degC
Format: cell-based
Details: Homo sapiens, FRT, 24 h; read-out: EC50
pEC50: −log10 of the molar value.
result-type: pEC50

COc1cccc(C(=O)NCCNc2nc3cc(C)cc(C)c3cc2C#N)c1
5.23
Cc1cc(C)c2cc(C#N)c(NCCNC(=O)c3cccnc3)nc2c1
4.88
COc1ccc(C(=O)NCCNc2nc3cc(C)cc(C)c3cc2C#N)c(OC)c1
4.26
Cc1cc(C)c2cc(C#N)c(N3CCN(C(=O)c4ccccn4)CC3)nc2c1
5.13
COc1ccc(C(=O)NCCNc2nc3cc(C)cc(C)c3cc2C#N)nc1
5.47
Cc1cc(C)c2cc(C#N)c(NCCCNC(=O)c3ccccn3)nc2c1
5.21
COc1cccc(C(=O)NCCCNc2nc3cc(C)cc(C)c3cc2C#N)c1
5.34
COc1ccccc1C(=O)NCCNc1nc2cc(C)cc(C)c2cc1C#N
5.64
COc1ccccc1C(=O)N1CCN(c2nc3cc(C)cc(C)c3cc2C#N)CC1
6.00
COc1ccccc1C(=O)NCCCNc1nc2cc(C)cc(C)c2cc1C#N
4.56
Cc1cc(C)c2cc(C#N)c(NCCNC(=O)c3ccncc3)nc2c1
5.00
COc1ccc(C(=O)N2CCN(c3nc4cc(C)cc(C)c4cc3C#N)CC2)cc1
5.89
COc1ccc(C(=O)NCCCNc2nc3cc(C)cc(C)c3cc2C#N)cc1
5.30
COc1ccc(C(=O)NCCNc2nc3cc(C)cc(C)c3cc2C#N)cc1
5.39
COc1ccc(C(=O)NCCNc2nc3cc(C)cc(C)c3cc2C#N)cc1OC
4.32
Cc1cc(C)c2cc(C#N)c(NCCNC(=O)c3ccccn3)nc2c1
5.92
Cc1cc(C)c2cc(C#N)c(NCCCNC(=O)c3cccnc3)nc2c1
4.80
COc1cccc(C(=O)N2CCN(c3nc4cc(C)cc(C)c4cc3C#N)CC2)c1
5.92
Cc1cc(C)c2cc(C#N)c(NCCCNC(=O)c3ccncc3)nc2c1
4.88
Cc1cc(C)c2cc(C#N)c(NCCNC(=O)c3ccccc3)nc2c1
5.00
COc1cccc(OC)c1C(=O)NCCNc1nc2cc(C)cc(C)c2cc1C#N
4.94

----------
Some molecules, each annotated with its measured Vmax.
System: FRT
Experiment: Potentiation of genistein-induced human CFTR delta F508 mutant gating activity expressed in forskolin-stimulated FRT cells assessed as increase in iodine influx measured as decrease in YFP fluorescence after 24 hrs at 27 degC relative to control
Assay type: cell-based
result-type: Vmax (µM/s)

COc1ccccc1C(=O)N1CCN(c2nc3cc(C)cc(C)c3cc2C#N)CC1
129
COc1cccc(C(=O)NCCNc2nc3cc(C)cc(C)c3cc2C#N)c1
216
Cc1cc(C)c2cc(C#N)c(NCCNC(=O)c3cccnc3)nc2c1
242
COc1ccc(C(=O)NCCNc2nc3cc(C)cc(C)c3cc2C#N)cc1
181
COc1ccc(C(=O)N2CCN(c3nc4cc(C)cc(C)c4cc3C#N)CC2)cc1
281
Cc1cc(C)c2cc(C#N)c(NCCCNC(=O)c3ccccn3)nc2c1
233
COc1ccc(C(=O)NCCNc2nc3cc(C)cc(C)c3cc2C#N)cc1OC
216
Cc1cc(C)c2cc(C#N)c(NCCCNC(=O)c3ccncc3)nc2c1
53
Cc1cc(C)c2cc(C#N)c(NCCNC(=O)c3ccccc3)nc2c1
210
COc1ccccc1C(=O)NCCCNc1nc2cc(C)cc(C)c2cc1C#N
254
Cc1cc(C)c2cc(C#N)c(NCCNC(=O)c3ccncc3)nc2c1
220

----------
Some compounds, each annotated with its measured pEC50.
Molecular target: Cystic fibrosis transmembrane conductance regulator (Homo sapiens, UniProt P13569, F508DEL)
Assay: Activity at human CFTR delta F508 mutant expressed in forskolin-stimulated FRT cells assessed as increase in iodine influx measured as decrease in YFP fluorescence after 18 to 24 hrs at 37 degC in presence of genistein
pEC50: −log10 of the molar value.
result-type: pEC50

Cc1cc(C)c2cc(C#N)c(NCCCNC(=O)c3ccncc3)nc2c1
5.09
COc1ccccc1C(=O)NCCNc1nc2cc(C)cc(C)c2cc1C#N
4.96
COc1ccc(C(=O)NCCNc2nc3cc(C)cc(C)c3cc2C#N)nc1
5.57
COc1ccc(C(=O)NCCCNc2nc3cc(C)cc(C)c3cc2C#N)cc1
5.37
COc1cccc(C(=O)NCCNc2nc3cc(C)cc(C)c3cc2C#N)c1
5.66
Cc1cc(C)c2cc(C#N)c(NCCNC(=O)c3ccncc3)nc2c1
5.14
